# Kd values compiled below
Target: T1, human eIF2Bε-CTD phosphomimetic mutant (eIF2Bε-CTD-EE) (human)
T1 chain: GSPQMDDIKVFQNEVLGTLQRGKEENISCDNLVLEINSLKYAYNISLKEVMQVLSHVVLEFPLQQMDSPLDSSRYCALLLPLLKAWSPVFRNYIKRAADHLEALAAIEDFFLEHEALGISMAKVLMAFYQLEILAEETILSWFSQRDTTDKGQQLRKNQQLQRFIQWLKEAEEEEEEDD
Test: NMR titration
Assay Endpoint: Kd (µM)

1. MSGDEMIFDPTMSKKKKKKKKPFMLDEEGDTQTEETQPSETKEVE (domain or fragment, UniProt P20042 1-45, looked up) [human eIF2β-K1 (K-box 1 with surrounding segments)]; 4
2. DTRKKDASDDLDDLNFFNQKKKKKKTKKIFDIDEAEEGVKDLKIES (domain or fragment, UniProt P20042 60-105, looked up) [human eIF2β-K2 (K-box 2 with surrounding segments)]; 2.3
